Data credit: patent US7253211B2

# Study target: CETP (Homo sapiens)
# Sequence (P11597 18-493): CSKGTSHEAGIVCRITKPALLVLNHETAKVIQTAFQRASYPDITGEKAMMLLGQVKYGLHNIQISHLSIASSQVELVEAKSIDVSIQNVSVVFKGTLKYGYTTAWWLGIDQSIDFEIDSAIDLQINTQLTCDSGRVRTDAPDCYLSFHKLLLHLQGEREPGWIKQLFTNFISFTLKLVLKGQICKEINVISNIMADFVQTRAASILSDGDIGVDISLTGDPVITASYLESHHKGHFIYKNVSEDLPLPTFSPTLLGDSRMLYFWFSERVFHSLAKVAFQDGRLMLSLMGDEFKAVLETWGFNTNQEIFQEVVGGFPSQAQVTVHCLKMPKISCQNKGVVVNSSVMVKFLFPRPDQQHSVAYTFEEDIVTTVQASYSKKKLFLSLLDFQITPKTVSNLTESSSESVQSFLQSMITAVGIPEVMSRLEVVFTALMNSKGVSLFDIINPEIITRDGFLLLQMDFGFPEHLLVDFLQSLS
# Measurement description: Assay of CETP Inhibition Using Purified Components (Reconstituted Buffer Assay)
# Format: biochemical
# Design: made in house; host or cells: CHO cells (serum-free conditioned medium)
# Applied conditions: Reconstituted Buffer Assay; read-out: IC50
pIC50: −log10 of the molar value.
Property measured: pIC50

Recorded results for 5 compounds are shown here.
[
  {
    "Smiles record": "O[C@H](CN(Cc1cccc(OC(F)(F)F)c1)c1nc(Cl)nc(Oc2ccc(F)cc2)n1)C(F)(F)F",
    "pIC50": 5.17
  },
  {
    "Smiles record": "O[C@H](CN(Cc1cccc(OC(F)(F)F)c1)c1cccc(Oc2ccc(Cl)c(Cl)c2)c1)C(F)(F)F",
    "pIC50": 5.80
  },
  {
    "Smiles record": "Cc1cc(Oc2cccc(N(Cc3cccc(OC(F)(F)F)c3)C[C@@H](O)C(F)(F)F)c2)ccc1Cl",
    "pIC50": 6.68
  },
  {
    "Smiles record": "CCc1cc(Oc2cccc(N(Cc3cccc(OC(F)(F)F)c3)C[C@@H](O)C(F)(F)F)c2)ccc1Cl",
    "pIC50": 7.47
  },
  {
    "Smiles record": "CCc1cc(Oc2cccc(N(Cc3ccc(C(F)(F)F)cc3F)C[C@@H](O)C(F)(F)F)c2)ccc1Cl",
    "pIC50": 7.40
  }
]

[P] O[C@H](CN(Cc1cccc(OC(F)(F)F)c1)c1cccc(OCc2cccc(C(F)(F)F)c2)c1)C(F)(F)F
[Q] Cc1ccc(Oc2cccc(N(Cc3cccc(OC(F)(F)F)c3)C[C@@H](O)C(F)(F)F)c2)cc1C
[R] CCc1cc(Oc2cccc(N(Cc3cccc(C(F)(F)C(F)(F)F)c3)C[C@@H](O)C(F)(F)F)c2)ccc1Cl
[S] Cc1ccc(Oc2cccc(N(Cc3cccc(OC(F)(F)F)c3)C[C@@H](O)C(F)(F)F)c2)cc1
[ask] Order the entries by their reported pIC50, beginning at the minimum. Use the labels to give the ranking in the order requested.
[reply] P, Q, S, R
(P: 6.36, Q: 6.70, S: 7.07, R: 7.36)

[a] O[C@H](CN(Cc1cccc(OC(F)(F)F)c1)c1cccc(OCc2cccc(OC(F)(F)F)c2)c1)C(F)(F)F
[b] Cc1cc(Oc2cccc(N(Cc3cccc(OC(F)(F)F)c3)C[C@@H](O)C(F)(F)F)c2)ccc1F
[c] CCc1cc(Oc2cccc(N(Cc3cc(C(F)(F)F)ccc3F)C[C@@H](O)C(F)(F)F)c2)ccc1Cl
[d] O[C@H](CN(Cc1cccc(OC(F)(F)F)c1)c1cccc(OC2CCCC2)c1)C(F)(F)F
[e] O[C@H](CN(Cc1cccc(OC(F)(F)F)c1)c1cccc(OCc2cc(C(F)(F)F)cc(C(F)(F)F)c2)c1)C(F)(F)F
[ask] Put the items in sequence by pIC50, from largest down. // rank by listing labels in the order requested
[reply] c, b, a, e, d
